# target-under-test: P2X7 (UniProt Q99572)
# Sequence (Q99572 1-595): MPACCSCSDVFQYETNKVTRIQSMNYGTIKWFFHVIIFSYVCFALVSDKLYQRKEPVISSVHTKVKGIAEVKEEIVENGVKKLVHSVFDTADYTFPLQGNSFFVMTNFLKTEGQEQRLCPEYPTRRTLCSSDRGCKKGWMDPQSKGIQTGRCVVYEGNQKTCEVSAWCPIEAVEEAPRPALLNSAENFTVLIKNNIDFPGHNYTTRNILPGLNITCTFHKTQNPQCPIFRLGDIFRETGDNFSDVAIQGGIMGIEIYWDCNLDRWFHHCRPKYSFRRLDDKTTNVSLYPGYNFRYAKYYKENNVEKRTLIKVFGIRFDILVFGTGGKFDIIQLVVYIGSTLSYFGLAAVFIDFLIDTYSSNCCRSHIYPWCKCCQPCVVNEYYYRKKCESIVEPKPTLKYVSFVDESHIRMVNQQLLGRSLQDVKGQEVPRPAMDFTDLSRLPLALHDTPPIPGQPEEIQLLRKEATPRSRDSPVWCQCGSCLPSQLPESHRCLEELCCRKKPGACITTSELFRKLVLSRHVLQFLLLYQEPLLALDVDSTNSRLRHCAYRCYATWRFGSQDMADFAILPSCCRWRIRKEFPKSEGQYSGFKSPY
# test-protocol: P2X7 activity of Table 1
# Assay type: cell-based
# conditions: pIC50 values for P2X7
recorded-endpoint: pIC50

                                    compound  test_result
 0  Cc1ccc(-c2cncc(=O)[nH]2)cc1NC(=O)C1=CNC(=O)C[C@H]1c1ccc(F)cc1        5.395
 1  Cc1ccc(-n2ncc(=O)[nH]c2=O)cc1NC(=O)C1=CNC(=O)C[C@H]1c1ccc(F)cc1         7.23
 2  Cc1ccc(-c2ccnn(C)c2=O)cc1NC(=O)C1=CNC(=O)C[C@H]1c1cccc(F)c1        8.045
 3  Cc1ccc(-c2cccn(C)c2=O)cc1NC(=O)C1=CN(C)C(=O)C[C@H]1c1ccc(F)cc1        7.855
 4  Cc1ccc(-c2ccnn2CC(C)C)cc1NC(=O)C1=CNC(=O)C[C@H]1c1ccc(F)cc1        6.367
 5  Cc1cc(-c2ccc(C)c(NC(=O)C3=CN(C)C(=O)C[C@H]3c3ccc(F)cc3)c2)n[nH]1         7.35
 6  Cn1nccc(-c2ccc(F)c(NC(=O)C3=CNC(=O)C[C@H]3c3ccc(F)cc3)c2)c1=O          8.2
 7  Cc1ccc(-n2cnnc2)cc1NC(=O)C1=CNC(=O)C[C@H]1c1ccc(F)cc1         5.55
 8  Cc1ccc(-c2cc(C)n(CCO)n2)cc1NC(=O)C1=CNC(=O)CC1c1ccc(F)c(F)c1 (stereo not drawn)        7.375
 9  Cc1ccc(-c2ccnn(C)c2=O)cc1NC(=O)C1=CN(C)C(=O)C[C@H]1c1ccc(F)cc1         7.94
10  Cc1ccc(-c2ccn[nH]c2=O)cc1NC(=O)C1=CN(C)C(=O)C[C@H]1c1cccc(F)c1        7.884
11  Cc1ccc(-c2cscn2)cc1NC(=O)C1=CNC(=O)C[C@H]1c1ccc(F)cc1         8.06
12  Cc1ccc(-c2ccnn(C)c2=O)cc1NC(=O)C1=CNC(=O)C[C@H]1c1ccc(F)cc1        8.395
13  Cc1ccc(N2CCOCC2)cc1NC(=O)C1=CNC(=O)C[C@H]1c1ccc(F)cc1          6.3
14  Cc1nccc(-c2ccc(C)c(NC(=O)C3=CNC(=O)C[C@H]3c3ccc(F)cc3)c2)n1        7.325
15  CCc1cc(-c2cccc(NC(=O)C3=CNC(=O)C[C@H]3c3ccc(F)cc3)c2)n[nH]1        6.073
16  COC[C@H](O)Cn1nccc(-c2ccc(C)c(NC(=O)C3=CNC(=O)C[C@H]3c3ccc(F)cc3)c2)c1=O        7.885
17  Cc1ccc(-c2ccc(C)c(NC(=O)C3=CNC(=O)C[C@H]3c3ccc(F)cc3)c2)nn1        7.567
18  CCOC(=O)Cn1nc(-c2ccc(C)c(NC(=O)C3=CNC(=O)C[C@H]3c3ccc(F)cc3)c2)cc1C        7.145
19  Cc1cnn(-c2ccc(C)c(NC(=O)C3=CNC(=O)C[C@H]3c3ccc(F)cc3)c2)c1         7.99
20  CN1C=C(C(=O)Nc2cc(-n3ncccc3=O)ccc2F)[C@H](c2ccc(F)cc2)CC1=O         5.74
21  Cc1ccc(-n2ccc(=O)n(C)c2=O)cc1NC(=O)C1=CN(C)C(=O)C[C@H]1c1ccc(F)cc1        6.015
22  Cc1ccc(-c2cc(C)n(C[C@@H](O)CO)n2)cc1NC(=O)C1=CN(C)C(=O)C[C@H]1c1ccc(F)cc1        7.585
23  Cc1cn(-c2ccc(C)c(NC(=O)C3=CNC(=O)C[C@H]3c3ccc(F)cc3)c2)nn1        7.145
24  Cc1cc(Cl)c(-n2ncccc2=O)cc1NC(=O)C1=CNC(=O)C[C@H]1c1ccc(F)cc1        7.606
25  Cc1ccc(-c2ccn[nH]c2=O)cc1NC(=O)C1=CNC(=O)C[C@H]1c1ccc(F)cc1        8.256
26  CCn1c(=O)cnn(-c2ccc(C)c(NC(=O)C3=CN(C)C(=O)C[C@H]3c3ccc(F)cc3)c2)c1=O         7.42
27  Cc1ccc(-c2ccn(C)n2)cc1NC(=O)C1=CNC(=O)C[C@H]1c1cccc(F)c1        7.965
28  Cc1ccc(-c2ccn(CCO)n2)cc1NC(=O)C1=CNC(=O)C[C@H]1c1ccc(F)cc1         7.53
29  COC[C@H](O)Cn1nccc(-c2ccc(C)c(NC(=O)C3=CN(C)C(=O)C[C@H]3c3ccc(F)cc3)c2)c1=O         7.57
